assay.info: In vitro intrinsic clearance in human liver microsomes
Format: in vitro ADME
attribute.measured: hepatic / metabolic clearance in human liver microsomes, in words

Challenge: Given the molecule NC(=O)c1ccc(Oc2ccc(CN3CCCC3c3cccnc3)cc2)c(Cl)c1 (stereo not drawn) , what is its reported hepatic / metabolic clearance in human liver microsomes, in words?
Response given: high hepatic clearance

Challenge: Please answer likewise for NC(=O)c1ccc(Oc2ccc(CN3CCCCC3c3ccccc3)cc2)nc1 (stereo not drawn)
Response given: high hepatic clearance

====

assay.info: In vitro intrinsic clearance in human liver microsomes
Format: in vitro ADME
measurement.parameters: human, pH 7.4, human liver microsomal intrinsic clearance, read-out: HLM CLint
Binary call on CLint scaled at 2 μM: yes from 30 mL/min/kg upward, no beneath that.

Would you please look over these solved cases?
Challenge: Reported CLint scaled at 2 μM at or above 30 mL/min/kg? COc1nn(C)cc1C1CCCN1Cc1ccc(Oc2ccc(C(N)=O)cc2F)cc1 (single isomer, unassigned; (-)) [Example 8]
Response given: no

Challenge: Please answer likewise for COc1cc(C2CCCN2Cc2ccc(Oc3ccc(C(N)=O)cc3)cc2)n(C)n1 (single isomer, unassigned) [Example 46]
Response given: yes

Challenge: Please answer likewise for Cc1nn(C)cc1[C@@H]1CCCN1Cc1ccc(Oc2ccc(C(N)=O)cc2)cc1 [Example 11]
Response given: no

Challenge: Please answer likewise for NC(=O)c1ccc(Oc2ccc(CN3CCC[C@H]3c3cccc(F)c3)cc2)c(F)c1 [Comparator F]
Response given: yes

Challenge: Please answer likewise for COc1nn(C)cc1[C@@H]1CCCN1Cc1ccc(Oc2ccc(C(N)=O)cc2)cc1 (single isomer, unassigned) [Example 12]
Response given: no

Others:
Challenge: Reported CLint scaled at 2 μM at or above 30 mL/min/kg? NC(=O)c1ccc(Oc2ccc(CN3CCCC3c3cccnc3)cc2)c(Cl)c1 (stereo not shown) [Comparator C]
Response given: yes

Challenge: Please answer likewise for NC(=O)c1ccc(Oc2ccc(CN3CCCC3c3ccccc3)cc2)nc1 (stereo not shown) [Comparator D]
Response given: yes

Challenge: Please answer likewise for NC(=O)c1ccc(Oc2ccc(CN3CCC(c4ccccc4)C3)cc2)nc1 (stereo not shown) [Comparator A, reference compound]
Response given: no

Challenge: Please answer likewise for NC(=O)c1ccc(Oc2ccc(CN3CCCCC3c3ccccc3)cc2)nc1 (stereo not shown) [Comparator B]
Response given: yes

====

System: isolated rat mitochondria
assay.info: Respirometric screening technology (RST) assay
Format: biochemical
measurement.parameters: inhibition of oxidative phosphorylation
attribute.measured: RST inhibitory

Challenge: Given the compound COc1nn(C)cc1C1CCCN1Cc1ccc(Oc2ccc(C(N)=O)cc2F)cc1 (single isomer, unassigned; (-)) , what is its reported RST inhibitory?
Response given: No effect

Challenge: Please answer likewise for COc1nn(C)cc1[C@@H]1CCCN1Cc1ccc(Oc2ccc(C(N)=O)cc2)cc1 (single isomer, unassigned)
Response given: No effect

Challenge: Please answer likewise for NC(=O)c1ccc(Oc2ccc(CN3CCCC3c3cccnc3)cc2)c(Cl)c1 (centres unmarked)
Response given: 21 µM

Challenge: Please answer likewise for Cc1nn(C)cc1[C@@H]1CCCN1Cc1ccc(Oc2ccc(C(N)=O)cc2)cc1
Response given: No effect

Challenge: Please answer likewise for NC(=O)c1ccc(Oc2ccc(CN3CCCCC3c3ccccc3)cc2)nc1 (centres unmarked)
Response given: No effect

Others:
Challenge: Given the compound Cc1cc(C)cc([C@@H]2CCCN2Cc2ccc(Oc3ccc(C(N)=O)cc3F)cc2)c1 [Comparator E, reference compound] , what is its reported RST inhibitory?
Response given: 19 µM

Challenge: Please answer likewise for NC(=O)c1ccc(Oc2ccc(CN3CCC[C@H]3c3cccc(F)c3)cc2)c(F)c1
Response given: 66 µM

Challenge: Please answer likewise for NC(=O)c1ccc(Oc2ccc(CN3CCCC3c3ccccc3)cc2)nc1 (centres unmarked)
Response given: No effect

====

study.system: human mu opioid receptor (hMOR) (Homo sapiens, UniProt P35372)
Construct: expressed in transfected cells; host or cells: CHO cells
Sequence (P35372 whole entry): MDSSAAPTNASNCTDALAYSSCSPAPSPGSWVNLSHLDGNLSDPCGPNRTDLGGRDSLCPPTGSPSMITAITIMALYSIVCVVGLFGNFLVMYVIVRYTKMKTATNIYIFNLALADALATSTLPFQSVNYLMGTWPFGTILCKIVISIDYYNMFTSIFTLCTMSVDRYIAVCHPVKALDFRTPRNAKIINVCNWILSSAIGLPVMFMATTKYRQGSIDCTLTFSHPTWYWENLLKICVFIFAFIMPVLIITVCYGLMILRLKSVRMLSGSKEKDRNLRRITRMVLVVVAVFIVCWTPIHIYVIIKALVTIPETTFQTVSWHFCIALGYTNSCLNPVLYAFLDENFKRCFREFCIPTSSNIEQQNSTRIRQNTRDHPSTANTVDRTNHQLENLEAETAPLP
assay.info: Mu radioligand binding assay ([3H]diprenorphine, CHO cell membranes)
measurement.parameters: Table 19; geometric mean of 2-6 determinations unless otherwise indicated (Example 3: >=7); read-out: hMOR binding assay Ki
Decide using Ki alone. Strictly below 200 nM: yes (1). Equal to or above 200 nM: no (0).

Challenge: Would you kindly verify if Ki of Cc1nn(C)cc1C1CCCN1Cc1ccc(Oc2ccc(C(N)=O)cc2)c(F)c1 (single isomer, unassigned; (+)) [Example 2] is strictly less than 200 nM?
Response given: yes (1)

Challenge: Please answer likewise for Cn1ccc([C@@H]2CCCN2Cc2ccc(Oc3ccc(C(N)=O)c(O)c3)cc2)n1
Response given: yes (1)

Challenge: Please answer likewise for COc1nn(C)cc1C1COCCN1Cc1ccc(Oc2ccc(C(N)=O)cc2F)cc1 (single isomer, unassigned)
Response given: yes (1)

Challenge: Please answer likewise for Cc1nn(C)c(C)c1C1CCCN1Cc1ccc(Oc2ccc(C(N)=O)cc2F)cc1 (racemic)
Response given: yes (1)

Challenge: Please answer likewise for Cc1nn(C)cc1C1CCCN1Cc1ccc(Oc2ccc(C(N)=O)cc2)c(F)c1 (single isomer, unassigned; (-)) [Example 3]
Response given: yes (1)

Challenge: Please answer likewise for Cc1cc(C2CCCN2Cc2ccc(Oc3ccc(C(N)=O)cc3F)cc2)nn1C (centres unmarked)
Response given: yes (1)

Challenge: Please answer likewise for Cc1nc([C@@H]2CCCN2Cc2ccc(Oc3ccc(C(N)=O)cc3)cc2)ns1
Response given: no (0)

Challenge: Please answer likewise for COc1nn(C)cc1C1COCCN1Cc1ccc(Oc2ccc(C(N)=O)cc2)cc1 (single isomer, unassigned)
Response given: yes (1)

Others:
Challenge: Would you kindly verify if Ki of Cc1nn(C)cc1C1CCCN1Cc1ccc(Oc2ccc(C(N)=O)c(O)c2)cc1 (racemic) [Example 16] is strictly less than 200 nM?
Response given: yes (1)

Challenge: Please answer likewise for Cc1nn(C)cc1[C@@H]1CCCN1Cc1ccc(Oc2ccc(C(N)=O)cc2)cc1
Response given: yes (1)

Challenge: Please answer likewise for Cc1cc(C2CCCN2Cc2ccc(Oc3ccc(C(N)=O)cc3F)cc2)on1 (centres unmarked)
Response given: no (0)

====

study.system: human kappa opioid receptor (hKOR) (Homo sapiens, UniProt P41145)
Construct: expressed in transfected cells; host or cells: CHO cells
Sequence (P41145 whole entry): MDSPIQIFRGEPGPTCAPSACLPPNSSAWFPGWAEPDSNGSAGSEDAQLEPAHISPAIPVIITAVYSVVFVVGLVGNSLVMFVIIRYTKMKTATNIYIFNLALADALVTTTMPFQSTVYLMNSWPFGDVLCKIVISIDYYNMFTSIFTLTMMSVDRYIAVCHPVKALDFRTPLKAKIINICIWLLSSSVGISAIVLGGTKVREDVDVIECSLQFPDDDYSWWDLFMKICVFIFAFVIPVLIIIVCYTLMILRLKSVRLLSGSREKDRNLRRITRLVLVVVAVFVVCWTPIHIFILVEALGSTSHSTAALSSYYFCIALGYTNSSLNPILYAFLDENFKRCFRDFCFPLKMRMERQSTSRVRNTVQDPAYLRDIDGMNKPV
assay.info: Kappa radioligand binding assay ([3H]diprenorphine, CHO cell membranes)
measurement.parameters: Table 19; geometric mean of 2-6 determinations unless otherwise indicated (Example 3: >=7); read-out: hKOR binding assay Ki
attribute.measured: Ki
State the value, then name its unit.

Challenge: Given the molecule Cc1nn(C)cc1C1CCCN1Cc1ccc(Oc2ccc(C(N)=O)cc2)c(F)c1 (single isomer, unassigned; (+)) [Example 2] , what is its reported Ki?
Response given: 3.95 nM

====

Catalogue of compounds with associated Selectivity hMOR/hKOR
study.system: human kappa opioid receptor (hKOR) (Homo sapiens)
Construct: expressed in transfected cells; host or cells: CHO cells
assay.info: Kappa radioligand binding assay ([3H]diprenorphine, CHO cell membranes)
measurement.parameters: selectivity ratio calculated by dividing the hMOR Ki by the hKOR Ki

The following compounds have reported results that may help.
Challenge: Given the compound COc1nn(C)cc1C1CCCN1Cc1ccc(Oc2ccc(C(N)=O)cc2F)cc1 (single isomer, unassigned; (-)) , what is its reported Selectivity hMOR/hKOR?
Response given: 37

Challenge: Please answer likewise for Cc1c(C2CCCN2Cc2ccc(Oc3ccc(C(N)=O)cc3F)cc2)cnn1C (single isomer, unassigned)
Response given: 6.4

Challenge: Please answer likewise for Cc1nsc(C2CCCN2Cc2ccc(Oc3ccc(C(N)=O)cc3)cc2)n1 (single isomer, unassigned)
Response given: 32

Challenge: Please answer likewise for Cc1nn(C)c(C)c1C1CCCN1Cc1ccc(Oc2ccc(C(N)=O)cc2F)cc1 (racemic)
Response given: 0.9

Challenge: Please answer likewise for Cc1cc(C2CCCN2Cc2ccc(Oc3ccc(C(N)=O)cc3F)cc2)nn1C (stereo not shown)
Response given: 9

Challenge: Please answer likewise for Cc1cnn(C)c1C1CCCN1Cc1ccc(Oc2ccc(C(N)=O)cc2F)cc1 (stereo not shown)
Response given: 3

Challenge: Please answer likewise for COc1nn(C)cc1[C@@H]1CCCN1Cc1ccc(Oc2ccc(C(N)=O)cc2)cc1 (single isomer, unassigned)
Response given: 31

Challenge: Please answer likewise for COc1cc(C2CCCN2Cc2ccc(Oc3ccc(C(N)=O)cc3)cc2)n(C)n1 (single isomer, unassigned)
Response given: 38

Others:
Challenge: Given the compound NC(=O)c1ccc(Oc2ccc(CN3CCCC3c3ccccc3)cc2)nc1 (stereo not shown) , what is its reported Selectivity hMOR/hKOR?
Response given: 28

Challenge: Please answer likewise for Cc1cc(C2CCCN2Cc2ccc(Oc3ccc(C(N)=O)cc3F)cc2)no1 (stereo not shown)
Response given: 2.2

Challenge: Please answer likewise for Cc1nn(C)cc1[C@@H]1CCCN1Cc1ccc(Oc2ccc(C(N)=O)cc2)cc1
Response given: 42

Challenge: Please answer likewise for Cc1cc(C)cc([C@@H]2CCCN2Cc2ccc(Oc3ccc(C(N)=O)cc3F)cc2)c1 [Comparator E, reference compound]
Response given: 39

Challenge: Please answer likewise for Cc1cc([C@@H]2CCCN2Cc2ccc(Oc3ccc(C(N)=O)cc3F)cc2)n(C)n1
Response given: 64

Challenge: Please answer likewise for Cc1nc([C@@H]2CCCN2Cc2ccc(Oc3ccc(C(N)=O)cc3)cc2)ns1
Response given: 54

Challenge: Please answer likewise for Cc1cc(C2CCCN2Cc2ccc(Oc3ccc(C(N)=O)cc3F)cc2)on1 (stereo not shown)
Response given: 5.8

Challenge: Please answer likewise for NC(=O)c1ccc(Oc2ccc(CN3CCC[C@H]3c3cccc(F)c3)cc2)c(F)c1
Response given: 35

All values here come from patent US10316021B2.
